Here the recorded growth is given for each entry.
System: MDA-MB-435 melanoma
Assay: NCI-60 one-dose screen, 48 h (100 = growth as untreated, 0 = no growth, -100 = all killed)
Conditions: 10 µM unless noted
Compounds without any hit were thinned out: in the full panel of roughly 83,000, 20% have a hit. Calls of active or inactive are those of the source. How the source made its calls: active means growth percent below 10; inactive means the rest.
metric_name: growth

molecule=CS(=O)(=O)c1ccc(C(=O)N/N=C/c2ccc3c(c2)OCO3)cc1 metric_name=growth test_value="102% (inactive)"
molecule="O=C(c1ccccc1)C1OC1C(=O)c1ccccc1 (stereo unspecified)" metric_name=growth test_value="1.06% (active)"
molecule=COc1ccc(-c2cc(-c3cn(-c4cccc(Cl)c4)nc3-c3ccc(OC)cc3)[nH]c(=S)n2)cc1 metric_name=growth test_value="63.5% (inactive)"
molecule=O=[N+]([O-])c1ccc(N/N=C\c2ccc(O)cc2O)nc1 metric_name=growth test_value="45% (inactive)"
molecule=ClCc1c(Cl)c(Cl)c(Cl)c(CCl)c1Cl metric_name=growth test_value="52.2% (inactive)"
molecule=Nc1c(Br)cc2c(c1Br)Cc1cc(Cl)ccc1-2 metric_name=growth test_value="102% (inactive)"
molecule=COc1ccc(-c2cc(-c3cc4ccccc4oc3=O)n(-c3ccccc3)n2)cc1 metric_name=growth test_value="100% (inactive)"
molecule=COc1ccc(/C=C(\C#N)c2cc(OC)c(OC)c(OC)c2)cc1 metric_name=growth test_value="0.449% (active)"
molecule=COc1cc(Cl)cc(-c2nn(C(=O)NCCN3CCOCC3)cc2-c2ccncc2)c1 metric_name=growth test_value="2.37% (active)"
molecule=CN1C(=O)C(C(=O)/C=C/c2ccccc2C(=O)O)C(=O)N(C)C1=O metric_name=growth test_value="101% (inactive)"
molecule="CCOC(=O)C1=C(C)NC(=S)NC1c1ccccc1 (stereo unspecified)" metric_name=growth test_value="102% (inactive)"

---

System: LOX IMVI melanoma
Assay: NCI-60 one-dose screen, 48 h
Conditions: 10 µM unless noted
This is part of a sample that, as a whole, favours compounds with a hit. Of some 83,000 tested, about 20% had one in any assay. Active and inactive are the calls of the source. Rule for the calls: active = growth percent below 10; inactive = the rest.
Classes used: 1.0 = active, 0.0 = inactive

compound=O=c1c2cc(Cl)ccc2oc2ccc(OCCCCCN3CCCCC3)cc12 classification=1.0
compound=COc1cc(/C=C/c2cc(/C=C/c3ccc(O)c(OC)c3)n(C(=O)Nc3ccc(F)c(Cl)c3)n2)ccc1O classification=1.0
compound=Clc1cc(Cl)cc(-c2cnc3nonc3n2)c1 classification=0.0
compound=CC(C)(C)OC[C@@H]1N=C(c2ccc(Br)cc2)Nc2nc3ccccn3c2C1=O classification=0.0
compound="COc1cc(C2CC(c3ccc(Cl)cc3)=NN2C(C)=O)ccc1Oc1nc2c(c(=O)n(C)c(=O)n2C)n1C (stereo unspecified)" classification=0.0
compound=CN1C2CCC1/C(=C\c1ccc(F)cc1)C(=O)/C2=C/c1ccc(F)cc1 classification=0.0
compound="COC(=O)C(Br)(C(=O)OC)C(Br)C(Br)C(Br)c1ccccc1 (stereo unspecified)" classification=1.0
compound=Cc1cc(O)ccc1Sc1ccccc1[N+](=O)[O-] classification=0.0
compound=Cc1cc(O)c2cc3c(O)c(O)ccc3cc2c1 classification=0.0
compound=Cc1cccc(N=NC(=S)NNc2cccc(C)c2)c1 classification=0.0
compound=Cc1cc(N)cc(C)c1-c1c(Br)cc(N)cc1Br classification=0.0
compound="CCN1C(=O)C(C)C=C(C)C=C1C (stereo unspecified)" classification=0.0
compound="CCOC(=O)C(Cc1ccccc1)n1c(O)c(/C=N/c2ncc(Cc3ccc(Cl)cc3Cl)s2)sc1=S (stereo unspecified)" classification=0.0
compound=COc1ccccc1/C=N\Nc1ccc([N+](=O)[O-])cn1 classification=0.0
compound=N/C(=C\C(=O)n1nc(-c2ccccc2)cc1N)c1ccccc1 classification=0.0
compound=C#CCO[C@H]1CC[C@H](OCC#C)[C@@H]2[C@H]1[C@H]1C[C@@H]3[C@@]4(C)CCC[C@@](C)(C(=O)OC)[C@@H]4CC[C@@]23C=C1C(C)C classification=1.0
compound=CCCNCCC(C)=O classification=0.0
compound=Nc1c(C(=O)Nc2ccccc2)sc2nc3c(cc12)C(=O)CCC3 classification=0.0
compound=COC(=O)[C@H](Cc1cn(C)cn1)NC(=O)[C@H](CC(C)C)NC(=O)Nc1cc(C(F)(F)F)cc(C(F)(F)F)c1 classification=1.0
compound=C=C1C(=O)O[C@H]2[C@H]1CC/C(COC(=O)N[C@@H](Cc1c[nH]c3ccccc13)C(=O)OC)=C\CC[C@@]1(C)O[C@@H]21 classification=1.0
compound=CCOC(=O)c1cc(N)nc2ccccc12 classification=0.0
